# assay overview: reducers of endogenous Her2 protein level, primary screen, SKBR3 breast tumor cells, AlphaScreen, ATP viability (AID 461);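 note: percent of carrier control wells set as 100% viability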
# applied conditions: 18-24 h, measured here: SKBR3 viability, ATP luminescence, at 10 µM
observable: viability (%)
Just the number please, in %, no unit attached.

> print(dat)
                                   compound  experimental.result
1         Cc1ccccc1NC(=O)C1CCN(c2cnccn2)CC1                 98.5
2            N#CCCCCn1c(-c2cncs2)nc2ccccc21                 93.5
3  COc1ccc(C(CNC(=O)CN2C(=O)NC3(CC(C)CC(C)(C)C3)C2=O)N2CCOCC2)cc1 (stereo not drawn)                 94.5

[ask] Item O=C(c1ccccc1)N1CCCCC(Sc2nnnn2-c2ccccc2)C1=O (stereo not drawn) : provide viability
[reply] 89.5

[ask] Kindly indicate its recorded viability. Item: CCCn1c(SCC(=O)N2CCN(c3ccccc3)CC2)nc2ccccc2c1=O
[reply] 117

[ask] Find the measured viability of CC(=O)NS(=O)(=O)c1ccc(NC(=O)c2ccccc2F)cc1 and report it.
[reply] 72

[ask] Return value of viability for input CC1(C)C(=O)Nc2ccccc2N1C(=O)COC(=O)Cn1cnc2ccccc2c1=O , no commentary.
[reply] 110

[ask] Look up viability of COc1ccccc1N1CCN(C(=O)c2ccc(S(=O)(=O)N3CCCCCC3)cc2)CC1 and report it.
[reply] 89.5

[ask] Hello, please tell me recorded viability for this one: Cn1c(SC/C=C/c2ccccc2)nnc1-c1cnccn1
[reply] 80.5

[ask] Return viability for the following compound: O=C1NC(c2cccs2)Nc2ccccc21 (stereo not drawn)
[reply] 107

[ask] Assign viability to the following record: CCN1C(=O)OC2(CCCCC2)C1(C)O (stereo not drawn)
[reply] 107

---

Entries and their inhibition values follow.
# assay overview: 384-well plate pilot, post-Golgi transport modulator project, inhibition of yeast transport mutant growth (AID 636)
# applied conditions: absorbance 615 nm, about 18 h, stronger effect = higher value
Respond with the bare value in %.

Solved cases (2 shown):
> print(dat)
                              compound  experimental.result
1  O=C(NC1CCCCC1)n1c(=O)oc2ccc(Cl)cc21                -2.73
2  CCCc1nnc2n1N=C(c1ccc(OC)c(OC)c1)CS2                -5.33

[ask] Supply reported inhibition belonging to this compound: O=C1CCCC2=C1C1(CCCC1)N=C(Nc1nc3ccccc3s1)N2
[reply] -4.21

[ask] Recall and state the measured inhibition for CC(C)CCNC(=O)C1CCN(C(=O)N(C)C)CC1 .
[reply] -1.41

[ask] Look up inhibition of Cc1cc(NC(=O)Cn2cnc3c2c(=O)n(C)c(=O)n3C)n(-c2ccccc2)n1 and report it.
[reply] -7.97

[ask] Supply inhibition value. Item: Cn1c(C(=O)N2CCN(C(=O)c3ccco3)CC2)cc2c(=O)n3ccccc3nc21
[reply] 0.26

[ask] Please report inhibition for the following compound: Cn1c(=O)c2c(nc(N3CCCCC3)n2CCSc2nc3ccccc3o2)n(C)c1=O
[reply] -0.67

[ask] Provide measured inhibition value, entry: COc1ccc2nc(NC(=O)CSc3nnc(-c4ccoc4C)n3C)sc2c1
[reply] -6.13

[ask] Given the compound O=C1CC(C2CCCO2)C(=O)N1Cc1ccccc1 (stereo not given) , write its reported inhibition.
[reply] -6.08

[ask] Note inhibition for the compound shown: O=C(CSCc1cccc(F)c1)N1CCN(c2ccccc2)CC1
[reply] -5

[ask] Read the entry CN(C)S(=O)(=O)c1ccc(C(=O)Nc2ccccc2C(=O)O)cc1 and write its reported inhibition.
[reply] -3.03

[ask] Write down inhibition measured for item COc1ccc(-c2nnc(SCCC(=O)O)n2-c2ccccc2)cc1
[reply] -0.53

[ask] Determine its reported inhibition: CC(C(=O)NCCCN1CCOCC1)n1cccc1C(=O)c1ccccc1 (stereo not given)
[reply] -2.37

[ask] Specify reported inhibition for the compound shown: O=C1NC(c2cccs2)Nc2ccccc21 (stereo not given)
[reply] -8.03

[ask] Retrieve inhibition measured for Cc1ccc(C(=O)N2CCCC(c3nc4c(nnn4Cc4ccccc4)c(=O)[nH]3)C2)cc1 (stereo not given) and print it.
[reply] -3.08

---

# assay overview: HUVEC growth inhibition – cell-based, human, primary screen (AID 575);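 note: 100% = median of untreated cell wells with 0.1% DMSO on each plate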
# applied conditions: HUVEC proliferation, CellTiter-Glo luminescence, 72 h; at 10 µM; stronger effect = lower value
Response field label: string, one of Satisfied (viability strictly below 90%) or Not satisfied.

Past entries and their recorded results:
> print(dat)
                                   compound        cat
1  O=C(O)C1C2CCC(O2)C1C(=O)NCCC1=CCCCC1 (stereo not given)  Satisfied
2  CCOC(=O)c1cc2sccc2n1CC(=O)Nc1ccc(OC)cc1OC  Satisfied

[ask] Here's an entry: COCCCN(C(C)=O)c1nc(-c2ccccc2)cs1 . Is its viability below 90%?
[reply] Satisfied

[ask] Here's an entry: Cc1cc(Br)ccc1NC(=O)CCN1C(=O)c2ccncc2C1=O . Is its viability below 90%?
[reply] Satisfied

---

A collection of compounds and their measured inhibition
# assay overview: growth suppression of yeast trafficking mutant, preliminary HTS, modulators of trafficking downstream of Golgi apparatus project, 1536-format plate, OD 615 nm (AID 637)
# applied conditions: yeast transport mutant growth, absorbance 615 nm, 18 h; stronger effect = higher value
# output: bare number, implied unit %

> print(dat)
                                   compound  experimental.result
1  COc1ccc(N2CCN(CCCNC(=O)C3(S(=O)(=O)c4ccc(Cl)cc4)CC3)CC2)cc1                -2.54
2  CC(=O)Nc1ccc(S(=O)(=O)N2CCC(c3nc4ccccc4[nH]3)CC2)cc1                    0
3  Cc1oc(-c2ccc(Cl)cc2)nc1CS(=O)CC(=O)NCCCN(C)C1CCCCC1 (configuration not stated)                 5.56

[ask] Supply inhibition value. Item: Cc1ccc(S(=O)(=O)C2(C(=O)Nc3cccnc3)CC2)cc1
[reply] -8.67

[ask] Return value of inhibition for input COc1ccccc1N1CC(O)=C(c2nc3ccccc3c(=O)[nH]2)C1=N , no commentary.
[reply] 1.59

[ask] Item c1cc(CNc2ccc3c(c2)OCO3)ccn1 : provide inhibition
[reply] -2.13

[ask] Please report inhibition for the following compound: O=C1CC2CS(=O)(=O)CC2N1c1ccc(Oc2ccccc2)cc1 (configuration not stated)
[reply] 3.11

[ask] Please give measured inhibition of the following entry: O=C(Cn1nnc(-c2ccc(CN3CCOCC3)cc2)n1)NC1CCCCC1
[reply] 3.28

[ask] Answer with the recorded inhibition of CN1CCN(CCCNC(=O)C2CC(=O)N(C3CCCCC3)C2)CC1 (configuration not stated) only.
[reply] 3.06

[ask] # return recorded inhibition for input Cn1cnnc1SCC(=O)Nc1ccccc1Sc1ccccc1
[reply] 4.67

[ask] Identify the reported inhibition for the following entry. COc1ccccc1NC(=O)c1ccc(COc2ccccc2OC)o1
[reply] 0

[ask] Identify inhibition associated with the compound O=C(NCCN1CCOCC1)C1CC(=O)N(c2ccc(F)c(Cl)c2)C1 (configuration not stated)
[reply] -4.03

[ask] Given CCN1CCN(c2nc3c(C)cccn3c(=O)c2/C=C(\C#N)S(=O)(=O)c2ccccc2)CC1 , respond with its inhibition.
[reply] -0.18

[ask] Tell me measured inhibition for COCc1cc(C)c2c(N)c(C#N)sc2n1 please.
[reply] -2.55

[ask] Tell me inhibition reported for COc1ccc(C(=O)NCCCCCC(=O)O)cc1OC
[reply] -3.33

[ask] Indicate the recorded inhibition value for this compound: O=C(c1ccco1)N(Cc1cc2ccccc2[nH]c1=O)C1CCCCC1
[reply] -6.35

[ask] Assign inhibition to the following record: c1cncc(-c2nnc(-c3ccco3)o2)c1
[reply] -7.58

[ask] # return recorded inhibition for entry Cc1cc(C(=O)CSc2nc3ccccc3[nH]2)c(C)n1C
[reply] -8.36

[ask] State its inhibition: COc1ccc(N(CC(=O)NCCSC(C)(C)C)S(C)(=O)=O)c(OC)c1
[reply] 2.62

[ask] For COc1cc(-c2c(C#N)c(N)nc3c2CCCC3)cc(OC)c1OC , write its inhibition.
[reply] 3.39

[ask] Given CN1C(=O)CCC1(O)c1ccccc1 (configuration not stated) , respond with its inhibition.
[reply] -8.17

[ask] Provide measured inhibition value, entry: Cc1ccc(OC(=O)CCC(=O)OCCCC(F)(F)C(F)(F)F)cc1
[reply] -1.64

[ask] Provide inhibition value for the following compound: O=C(Cc1c(F)cccc1Cl)Nc1ccncc1
[reply] -0.48

---

# assay overview: reversal of MRP1-mediated doxorubicin resistance, pilot screen, H69AR cells, doxorubicin co-treatment (AID 601)
# applied conditions: H69AR cells, CellTiter-Glo, 72 h; compound alone cytotoxicity; at 10 µM
observable: viability
Quote the value and follow it with the unit of measurement.

Please review the entries below; each comes with its answer.
> print(dat)
                                   compound  experimental.result
1         O=C(Nc1ccc2c(c1)OCO2)c1cncc(Br)c1                92.6%
2  CCOC(=O)C1CCCN(C(=O)c2ccc(CS(=O)(=O)Cc3ccccc3C)o2)C1 (centres undefined)                96.2%
3  CC(C)CNC(=O)c1ccccc1NC(=O)c1ccc(CN2CCOCC2)cc1                99.6%

[ask] Give me measured viability, please, for this compound: N#C/C(C(=O)N1CCOCC1)=C1/SC(Cc2ccccc2)C(=O)N1c1ccccc1 (centres undefined)
[reply] 98.4%
